# systemTested: Recombinant human mPGES-1 (Homo sapiens, UniProt O14684)
# Construct: made in house; host or cells: CHO cells (crude microsomal fractions)
# Sequence (O14684 whole entry): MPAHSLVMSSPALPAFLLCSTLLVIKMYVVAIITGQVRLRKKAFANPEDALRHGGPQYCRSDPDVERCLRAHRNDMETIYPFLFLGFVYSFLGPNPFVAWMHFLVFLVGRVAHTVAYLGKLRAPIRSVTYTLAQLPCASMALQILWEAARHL
# assayProtocol: In-vitro screening of mPGES-1 inhibitors (inhibition of PGE2 formation from PGH2, HTRF detection)
# Format: biochemical
# conditionInfo: 1 μM test compound; mPGES-1 enzyme, crude microsomal fractions; read-out: Percentage inhibition at 1 μM
# Source text: In-Vitro Protocol for Screening of mPGES-1 Inhibitors: mPGES-1 (Microsomal prostaglandin E synthase-1) is a microsomal enzyme that converts endoperoxide substrate PGH2 (prostaglandin H2) to product PGE2 (prostaglandin E2) by isomerization in the presence of reduced glutathione (GSH). mPGES-1 inhibitors were screened by assessing their ability to inhibit formation of PGE2 from PGH2 in the presence of mPGES-1 using an anti-PGE2 antibody based detection method. […]
experimentalEndpoint: inhibition at 1 µM (%)
Answers are plain numbers, in %.

Count: 2. Required value per item: inhibition at 1 µM.
1. CC(C)(C)C(=O)NCc1ccc(Cl)c(-c2nn(-c3cc(F)cc(C(F)(F)F)c3)c(=O)[nH]2)c1
2. CC(C)(CF)C(=O)NCc1cnc(C(F)F)c(-c2nn(-c3ccc(C(F)(F)F)cc3)c(=O)[nH]2)c1

[98.5, 99.3]

Return inhibition at 1 µM for the following compound: "O=C(NCc1ccc(Cl)c(-n2nc(-c3ccc(C#Cc4ccc(Cl)cc4F)cc3F)[nH]c2=O)c1)C1CC1" 99.1
